Can you tell me IC50 for the items I'm about to list?
- EXPERIMENTAL_TARGET: human recombinant H-PGDS (Homo sapiens, UniProt O60760)
- Sequence (O60760 whole entry): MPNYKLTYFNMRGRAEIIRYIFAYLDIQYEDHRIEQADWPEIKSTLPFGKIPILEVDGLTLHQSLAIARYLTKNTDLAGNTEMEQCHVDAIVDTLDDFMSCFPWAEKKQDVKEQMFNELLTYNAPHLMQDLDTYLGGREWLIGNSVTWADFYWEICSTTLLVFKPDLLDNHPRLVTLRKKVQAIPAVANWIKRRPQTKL
- TEST_PROTOCOL: Fluoresecence Intensity h-PGDSTBA Enzyme Assay
- CONDITION_NOTES: IC50, 5.0 μM PGH2, 2.5 mM L-Glutathione, 10 min preincubation, 4-parameter fit, highest inhibitor concentration typically 1 μM
Answers are plain numbers, in nM.

Some solved cases for reference:
COMPOUND	MEASURED_QUANTITY	ENDPOINT_RESULT
CN1CC[C@@H](NC(=O)c2cnc(-c3cccc(F)c3)nc2)[C@@H](Cc2ccccc2)C1	IC50	30
N#Cc1ccc(C(F)(F)F)nc1N1C[C@H](O)[C@H](NC(=O)c2cnc(-c3cccc(F)c3)nc2)C1 (relative stereo)	IC50	4.47
O=C(NC1CCN(c2ncc3c(n2)CCOC3)CC1)c1cnc(-c2cccc(F)c2)nc1	IC50	0.595
O=C(NC1CCN(c2ncc3c(n2)CCOC3)C1)c1cnc(-c2cccc(F)c2)nc1 (single isomer, unassigned) [Example 81a]	IC50	0.27

Q. Read off the recorded IC50 for CCOC(=O)N1CCC(NC(=O)c2cnc(-c3cccc(F)c3)nc2)C1 (single isomer, unassigned) [Example 82b]
A. 0.58
